All values here come from patent US10105357B2.

# System: A549 (Lung Adenocarcinoma)
# Test name: Cell viability analysis, lung cancer A549
# Assay type: cell-based, human
# Settings: human, 72 h, 10 µM
Measured property: cell viability (survival rate), A549

{"Molecule": "CC1(C)S[C@@H]2[C@H](NC(=O)[C@H](N)c3ccccc3)C(=O)N2[C@H]1C(=O)O [Ampicillin Trihydrate]", "Measured property": "cell viability (survival rate), A549", "Reading": 41.9}
{"Molecule": "CC1(C)S[C@@H]2[C@H](NC(=O)[C@H](N)c3ccccc3)C(=O)N2[C@H]1C(=O)O [Ampicillin sodium]", "Measured property": "cell viability (survival rate), A549", "Reading": 102.6}
{"Molecule": "CN(C)[C@@H]1C(O)=C(C(N)=O)C(=O)[C@@]2(O)C(O)=C3C(=O)c4c(O)cccc4[C@@](C)(O)[C@H]3[C@H](O)[C@@H]12 [Oxytetracycline (Terramycin), Oxytetracycline]", "Measured property": "cell viability (survival rate), A549", "Reading": 42.3}
{"Molecule": "CN(C)[C@@H]1C(O)=C(C(N)=O)C(=O)[C@@]2(O)C(O)=C3C(=O)c4c(O)cccc4[C@@](C)(O)[C@H]3[C@H](O)[C@@H]12 [Oxytetracycline dihydrate]", "Measured property": "cell viability (survival rate), A549", "Reading": 22.1}

----------
# Test system: PC3 (p53−) (Prostate Adenocarcinoma)
# Test name: Cell viability analysis, prostate cancer PC3
# Assay type: cell-based, human
# Settings: Homo sapiens, 72 h, PC-3; repeated experiment; read-out: The results of antibiotic drug inhibiting cancer cell lines (cell viability analysis), PC-3
Structures can show the parent of a compound that is named as a salt.
Measured property: viability at 10 µM (%)

{"Compound": "CC(C)(C)CC(C)(C)c1ccc(O)c(Cc2ccc(Cl)cc2Cl)c1", "Reading": 110}
{"Compound": "CN(C)CCC=C1c2ccccc2CCc2ccccc21 [Amitriptyline HCl]", "Reading": 99.4}
{"Compound": "CC[C@@H]([C@H](C)O)n1ncn(-c2ccc(N3CCN(c4ccc(OC[C@@H]5CO[C@@](Cn6cncn6)(c6ccc(F)cc6F)C5)cc4)CC3)cc2)c1=O", "Reading": 52.1}
{"Compound": "CCCCCCCCCCCCCCCC[N+](C)(C)CCN(Cc1ccc(OC)cc1)c1ncccn1 [Thonzonium Bromide]", "Reading": 29.3}
{"Compound": "CN(C)C(=O)C(CCN1CCC(O)(c2ccc(Cl)cc2)CC1)(c1ccccc1)c1ccccc1 [Loperamide hydrochloride]", "Reading": 41.6}
{"Compound": "COc1c(C)c2c(c(O)c1C/C=C(\\C)CCC(=O)O)C(=O)OC2 [Mycophenolic (Mycophenolate), Mycophenolic]", "Reading": 55.4}

----------
# Lookup of reported viability at 10 µM keyed by entry
# Tested on: AGS (Gastric Adenocarcinoma)
# Test name: Cell viability analysis, gastric cancer AGS
# Format: cell-based, human
# Settings: Homo sapiens, 72 h, read-out: The results of antibiotic drug inhibiting cancer cell lines (cell viability analysis), AGS; repeated experiment
Structures can show the parent of a compound that is named as a salt.

{"Molecule": "CN(C)CCC[C@@]1(c2ccc(F)cc2)OCc2cc(C#N)ccc21 [Escitalopram oxalate]", "viability at 10 µM / %": 145}
{"Molecule": "O=c1n(CCCN2CCN(c3cccc(Cl)c3)CC2)nc2ccccn12 [Trazodone hydrochloride (Desyrel), Trazodone hydrochloride]", "viability at 10 µM / %": 120}
{"Molecule": "Cc1noc(NS(=O)(=O)c2ccc(N)cc2)c1C", "viability at 10 µM / %": 108}
{"Molecule": "Cc1ncc([N+](=O)[O-])n1CCO", "viability at 10 µM / %": 113}

----------
Let's look at some compounds and their measured viability at 10 µM.
# Test system: A375 (Amelanotic Melanoma)
# Test name: Cell viability analysis, skin cancer A375
# Assay type: cell-based, human
# Settings: Homo sapiens, A-375, 72 h, read-out: cell viability (survival rate), A375, drug 10 μM, 72 hours, WST-1, OD450 nm
Structures can show the parent of a compound that is named as a salt.
Measured property: viability at 10 µM (%)

{"Compound": "CN(C)[C@@H]1C(O)=C(C(N)=O)C(=O)[C@@]2(O)C(O)=C3C(=O)c4c(O)cccc4[C@@](C)(O)[C@H]3C[C@@H]12 [Tetracycline HCl]", "Measured property": "viability at 10 µM", "Reading": 74.1}
{"Compound": "C[C@@H]1CN(c2c(F)c(N)c3c(=O)c(C(=O)O)cn(C4CC4)c3c2F)C[C@H](C)N1 [Sparfloxacin]", "Measured property": "viability at 10 µM", "Reading": 82.6}
{"Compound": "Cc1cccn2c(=O)c(-c3nnn[nH]3)cnc12 [Pemirolast (BMY 26517) potassium, Pemirolast potassium]", "Measured property": "viability at 10 µM", "Reading": 70.8}
{"Compound": "CCN1CCN(c2cc3c(cc2F)c(=O)c(C(=O)O)cn3C2CC2)CC1 [Enrofloxacin]", "Measured property": "viability at 10 µM", "Reading": 65.2}

----------
Measured viability at 10 µM, listed per entry.
# System: AGS (Gastric Adenocarcinoma)
# Test name: Cell viability analysis, gastric cancer AGS
# Assay type: cell-based, human
# Settings: Homo sapiens, 72 h, read-out: cell viability (survival rate), AGS

{"Molecule": "CCCCCCCCCCCCCCCC[n+]1ccccc1 [Cetylpyridinium Chloride]", "viability at 10 µM [%]": 33.4}
{"Molecule": "O=C([O-])c1ccccc1O.[Na+] [Sodium salicylate]", "viability at 10 µM [%]": 82.1}
{"Molecule": "COc1cc(C)c(/C=C/C(C)=C/C=C/C(C)=C/C(=O)O)c(C)c1C", "viability at 10 µM [%]": 68.1}
{"Molecule": "C[N+](C)(C)CCO.[Cl-] [Choline Chloride]", "viability at 10 µM [%]": 97.1}
{"Molecule": "Cl.NCCc1ccc(O)c(O)c1 [Dopamine hydrochloride (Inotropin), Dopamine hydrochloride]", "viability at 10 µM [%]": 74.3}

----------
# Test system: BCC (basal cell carcinoma)
# Test name: Cell viability analysis, skin cancer BCC
# Format: cell-based, human
Cut-off 50 on The results of antibiotic drug inhibiting cancer cell lines (cell viability analysis), BCC: below means True, at or above means False.

{"Compound": "CC(=O)Oc1ccccc1C(=O)Nc1ncc([N+](=O)[O-])s1 [Nitazoxanide (Alinia, Annita)]", "Assigned class": "False"}
{"Compound": "Cl.c1ccc([C@H]2CN3CCSC3=N2)cc1 [Levamisole Hydrochloride (Ergamisol)]", "Assigned class": "False"}
{"Compound": "O=C(Nc1ccc([N+](=O)[O-])cc1Cl)c1cc(Cl)ccc1O [Niclosamide (Niclocide)]", "Assigned class": "True"}
{"Compound": "Cc1cc(C#N)cc(C)c1Oc1nc(Nc2ccc(C#N)cc2)nc(N)c1Br", "Assigned class": "True"}
{"Compound": "CS(=O)(=O)c1ccc([C@@H](O)[C@@H](CO)NC(=O)C(Cl)Cl)cc1", "Assigned class": "False"}
{"Compound": "CC1(C)[C@@H](O[C@H]2O[C@H](C(=O)O)[C@@H](O)[C@H](O)[C@H]2O[C@@H]2O[C@H](C(=O)O)[C@@H](O)[C@H](O)[C@H]2O)CC[C@]2(C)[C@H]3C(=O)C=C4[C@@H]5C[C@@](C)(C(=O)O)CC[C@]5(C)CC[C@@]4(C)[C@]3(C)CC[C@@H]12 [Ammonium Glycyrrhizinate (AMGZ), Ammonium Glycyrrhizinate]", "Assigned class": "False"}
{"Compound": "Cc1cc(C2CCCCC2)n(O)c(=O)c1.NCCO", "Assigned class": "True"}

----------
# System: HL-60 (Acute Promyelocytic Leukemia)
# Test name: Cell viability analysis, leukemia HL-60
# Type: cell-based, human
# Settings: drug 10 μM, 72 hours, WST-1, OD450 nm
Measured property: cell viability (survival rate), HL-60

{"Molecule": "CN(C/C=C/C#CC(C)(C)C)Cc1cccc2ccccc12.Cl [Terbinafine HCl (Lamisil)]", "Measured property": "cell viability (survival rate), HL-60", "Reading": 86.5}
{"Molecule": "CN(C)CCCN1c2ccccc2CCc2ccc(Cl)cc21.Cl [Clomipramine HCl (Anafranil)]", "Measured property": "cell viability (survival rate), HL-60", "Reading": 82.7}
{"Molecule": "O=C([O-])C(O)[C@H](O)[C@@H](O)[C@H](O)[C@H](O)CO.O=C([O-])C(O)[C@H](O)[C@@H](O)[C@H](O)[C@H](O)CO.[Ca+2] (stereo partly shown) [Calcium Gluceptate]", "Measured property": "cell viability (survival rate), HL-60", "Reading": 113.4525}
{"Molecule": "C[C@@H]1[C@H](O)[C@@H](C)/C=C/C=C/CC/C=C/C=C/C=C/C=C/C(O[C@H]2O[C@H](C)[C@@H](O)[C@H](N)[C@@H]2O)CC2O[C@](O)(CC(O)C(O)CCC(O)CC(O)CC(O)CC(=O)O[C@H]1C)CC(O)C2C(=O)O (stereo partly shown) [Nystatin (Mycostatin), Nystatin]", "Measured property": "cell viability (survival rate), HL-60", "Reading": 96.2}
